Measured self-splicing fitness (ln) of individual entries
assay.method.text: self-splicing fitness, log relative to wild type (ln ratio); higher = more splicing; Tetrahymena group I intron in knt gene, E. coli kanamycin selection, DiMSum; sequences stand for … in CUCUCU…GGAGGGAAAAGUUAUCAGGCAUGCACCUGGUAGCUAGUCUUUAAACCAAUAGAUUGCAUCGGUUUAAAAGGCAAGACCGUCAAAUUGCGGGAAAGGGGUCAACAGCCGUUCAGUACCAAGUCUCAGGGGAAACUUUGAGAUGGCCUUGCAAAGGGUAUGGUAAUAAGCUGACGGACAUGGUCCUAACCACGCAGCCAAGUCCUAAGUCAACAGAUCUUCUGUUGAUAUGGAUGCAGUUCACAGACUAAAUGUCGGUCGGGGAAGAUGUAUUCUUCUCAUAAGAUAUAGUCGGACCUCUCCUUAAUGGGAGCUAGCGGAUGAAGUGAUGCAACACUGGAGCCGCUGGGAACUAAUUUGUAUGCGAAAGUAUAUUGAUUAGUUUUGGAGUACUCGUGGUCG;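 also: selection with 25 µg/mL kanamycin versus none on LB agar overnight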
test.context: 37 °C
Please respond with just the number, no unit label.

Answered examples (6):
{"residue.sequence": "CUGGAGCAAUAUUACGGUAG", "self-splicing fitness (ln)": -0.514}
{"residue.sequence": "AUAAAGCAAUAUUACGAGGC", "self-splicing fitness (ln)": -2.7}
{"residue.sequence": "AAUGAGCAAUAUUACGGCAU", "self-splicing fitness (ln)": -0.695}
{"residue.sequence": "UUCCAGCAAUAUUACGGGCC", "self-splicing fitness (ln)": -2.34}
{"residue.sequence": "AAUUAGCAAUAUUACGAGGC", "self-splicing fitness (ln)": -2.6}
{"residue.sequence": "GACAAGCAAUAUUACGACCC", "self-splicing fitness (ln)": -0.477}

self-splicing fitness (ln) reported for this sequence CCCAAGCAAUAUUACGGAAA : -3.47

self-splicing fitness (ln) reported for this sequence UGUUAGCAAUAUUACGUAUA : -0.458

self-splicing fitness (ln) reported for this sequence ACAGAGCAAUAUUACGUGAC : -1.6

self-splicing fitness (ln) reported for this sequence UGGCAGCAAUAUUACGAACA : 0.139

self-splicing fitness (ln) reported for this sequence CUGGAGCAAUAUUACGUAUU : -2.09

self-splicing fitness (ln) reported for this sequence GGAAAGCAAUAUUACGGUUC : -2.23

self-splicing fitness (ln) reported for this sequence CCGUAGCAAUAUUACGCCUA : -2.11

self-splicing fitness (ln) reported for this sequence UCGUAGCAAUAUUACGUGGA : -2.36

self-splicing fitness (ln) reported for this sequence CGGGAGCAAUAUUACGACGG : -0.65

self-splicing fitness (ln) reported for this sequence CGAAAGCAAUAUUACGACUC : -1.63

====

assay.method.text: self-splicing fitness, log relative to wild type (ln ratio); higher = more splicing; Tetrahymena group I intron in knt gene, E. coli kanamycin selection, DiMSum; sequences stand for … in CUCUCU…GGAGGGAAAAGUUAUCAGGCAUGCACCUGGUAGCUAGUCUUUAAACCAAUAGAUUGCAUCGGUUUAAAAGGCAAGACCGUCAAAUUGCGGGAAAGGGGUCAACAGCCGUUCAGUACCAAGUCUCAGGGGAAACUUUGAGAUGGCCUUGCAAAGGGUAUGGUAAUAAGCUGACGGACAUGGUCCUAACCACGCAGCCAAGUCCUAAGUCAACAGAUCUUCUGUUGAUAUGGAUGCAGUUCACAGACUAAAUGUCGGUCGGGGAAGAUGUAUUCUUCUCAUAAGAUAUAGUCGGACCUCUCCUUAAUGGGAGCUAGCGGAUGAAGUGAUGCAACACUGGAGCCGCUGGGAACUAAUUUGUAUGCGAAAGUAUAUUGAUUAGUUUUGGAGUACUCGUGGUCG
test.context: 37 °C
Measured self-splicing fitness (ln) of individual entries
Please respond with just the number, no unit label.

Answered examples (8):
{"residue.sequence": "UAAUAGCAAUAUUACGAAGU", "number": -1.55}
{"residue.sequence": "GAACAGCAAUAUUACGCGCC", "number": -0.851}
{"residue.sequence": "CGGCAGCAAUAUUACGAAGG", "number": 0.373}
{"residue.sequence": "CCAAAGCAAUAUUACGGUUC", "number": -2.34}
{"residue.sequence": "UUGAAGCAAUAUUACGGUAU", "number": -1.5}
{"residue.sequence": "AGCCAGCAAUAUUACGAUCA", "number": -2.69}
{"residue.sequence": "UAUCAGCAAUAUUACGCACG", "number": 0.232}
{"residue.sequence": "GGACAGCAAUAUUACGGAGA", "number": -2.61}

self-splicing fitness (ln) reported for this sequence CUGUAGCAAUAUUACGGAAC : -2.87

self-splicing fitness (ln) reported for this sequence AAAGAGCAAUAUUACGCAAA : -2.75

self-splicing fitness (ln) reported for this sequence CCUCAGCAAUAUUACGGACU : -1.79

self-splicing fitness (ln) reported for this sequence ACAUAGCAAUAUUACGGGGU : -1.81

self-splicing fitness (ln) reported for this sequence CGCAAGCAAUAUUACGACUA : -0.703
